System: MCF7 ADR (GSH-transferase) cells
Test: cells
Format: cell-based
Conditions: Homo sapiens, NCI/ADR-RES, read-out: Sensitivity of mdr lines
pIC50: −log10 of the molar value.
List of pIC50 values.
recorded_endpoint: pIC50

[[record]]
compound = "CC1=C2C(=C[C@@](C)(CO)C2O)C(=O)[C@](C)(O)C12CC2 (some centres unmarked)"
observed = 8.43

[[record]]
compound = "CC1=C2C(=O)C(C)(C)C=C2C(=O)[C@](C)(O)C12CC2 [Dehydroilludin M]"
observed = 7.17


* * *

System: CEM VM-1 variant cells
Test: sensitivity of mdr lines, CEM VM-1
Assay type: cell-based
Settings: Homo sapiens, CEM-VM1
pIC50: −log10 of the molar value.
recorded_endpoint: pIC50

[[record]]
compound = "CC1=C2C(=C[C@@](C)(CO)C2O)C(=O)[C@](C)(O)C12CC2 (stereo partly shown)"
observed = 7.79

